- Tested on: COS-7 and HepG2 cells; for % surv mean: tested at 6.8 µM
- assayRemarks: Cell survival after transfection (cell line not given)
- Assay type: cell-based
- condition: Table 11; mean; cell line and helper lipid not given
recordedEndpoint: % surv mean

Field % surv mean (entry CCCCCCCC/C=C\CCCCCCCCC(CCCCCCCC/C=C\CCCCCCCC)c1cc[n+](C)cc1.[Cl-] [S2, reference compound] ) reads 87.24%

Field % surv mean (entry "CCCCCCCC/C=C\CCCCCCCC[n+]1ccc(CCCCCCCCC)cc1.[Cl-]" ) reads 84.435%

Field % surv mean (entry "CCCCCCCC/C=C\CCCCCCCC[n+]1ccc(CCCCCCCCCCC)cc1" ) reads 84.395%

Field % surv mean (entry "CCCCCCCC/C=C\CCCCCCCC[n+]1ccc(CCCCCCCCCCCCCCCCCCC)cc1.[Cl-]" ) reads 87.805%

Field % surv mean (entry "CCCCCCCCCCCCOC(=O)c1cc[n+](CCCCCCCCCCCC)cc1.[Cl-]" ) reads 84.51%

Field % surv mean (entry "CCCCCCCC/C=C\CCCCCCCC[n+]1ccc(CCCCCCCCCCCCCCC)cc1.[Cl-]" ) reads 88.91%

Field % surv mean (entry "CCCCCCCC/C=C\CCCCCCCC[n+]1ccc(CCCCCCCCCCCCCCCCC)cc1.[Cl-]" ) reads 87.55%

Field % surv mean (entry "CCCCCCCC/C=C\CCCCCCCCCc1cc[n+](CCCCCCCCCCCCCCCCCC)cc1.[Cl-]" ) reads 87.02%

----------
I'd appreciate it if you could supply % surv cells values for the items below.
- System: COS-7 and HepG2 cells
- assayRemarks: Cell survival after transfection (cell line not given)
- Format: cell-based
- condition: Table 8; cell line and helper lipid not given

Field % surv cells (entry "CCCCCCCC/C=C\CCCCCCCCCc1cc[n+](CCCCCCCC/C=C\CCCCCCCC)cc1.[Cl-]" ) reads 57.21%

Field % surv cells (entry CCCCCCCC/C=C\CCCCCCCCC(CCCCCCCC/C=C\CCCCCCCC)c1cc[n+](C)cc1.[Cl-] [S2, reference compound] ) reads 60.78%

Field % surv cells (entry CCCCCCCCCCCCCc1cc[n+](CCCCCCCC)cc1.[Cl-] [SF32, 1-octyl-4-tridecyl-pyridinium Chloride] ) reads 72.1%

Field % surv cells (entry CCCCCCCCCCCCCc1cc[n+](CCCCCCCCCCCC)cc1.[Cl-] [SF34, 1-dodecyl-4-tridecyl-pyridinium Chloride] ) reads 50.43%

Field % surv cells (entry "CCCCCCCC/C=C\CCCCCCCC[n+]1ccc(CCCCCCCCCCCCC)cc1.[Cl-]" ) reads 75.35%

Field % surv cells (entry CCCCCCCCCCCCCc1cc[n+](CCCCCCCCCC)cc1.[Cl-] [SF33, 1-decyl-4-tridecyl-pyridinium Chloride] ) reads 75.05%

Field % surv cells (entry "CCCCCCCCCCCCCC[n+]1ccc(CCCCCCCCCCCCC)cc1.[Cl-]" ) reads 72.37%

Field % surv cells (entry "CCCCCCCCCCCCCCCC[n+]1ccc(CCCCCCCCCCCCC)cc1.[Cl-]" ) reads 64.88%

Field % surv cells (entry CCCCCCCCCCCCCCCCCC[n+]1ccc(CCCCCCCCCCCCC)cc1.[Cl-] [SF37, 1-stearyl-4-tridecyl-pyridinium Chloride] ) reads 70.7%

----------
I'd appreciate it if you could supply % surv cells values for the items below.
- Tested on: HepG2
- assayRemarks: Cell survival after transfection (Table 3); note: tested at 6.8 µM
- Type: cell-based
- condition: HepG2, DOPE, second value
Give just the numeric value; % need not be written.

Field % surv cells (entry "CCCCCCCC/C=C\CCCCCCCC[n+]1ccc(CCC)cc1.[Cl-]" ) reads 31.48

Field % surv cells (entry "CCCCCCCC/C=C\CCCCCCCC[n+]1ccc(CCCCCCCCCCC)cc1" ) reads 55.58

Field % surv cells (entry "CCCCCCCC/C=C\CCCCCCCC[n+]1ccc(CCCCC)cc1.[Cl-]" ) reads 29.63

Field % surv cells (entry "CCCCCCCC/C=C\CCCCCCCC[n+]1ccc(CCCCCCC)cc1.[Cl-]" ) reads 40.59

Field % surv cells (entry "CCCCCCCC/C=C\CCCCCCCC[n+]1ccc(CCCCCCCCCCCCCCCCC)cc1.[Cl-]" ) reads 22.89

Field % surv cells (entry "CCCCCCCC/C=C\CCCCCCCC[n+]1ccc(CCCCCCCCC)cc1.[Cl-]" ) reads 27.47

Field % surv cells (entry "CCCCCCCC/C=C\CCCCCCCC[n+]1ccc(C)cc1.[Cl-]" ) reads 20.5

Field % surv cells (entry "CCCCCCCC/C=C\CCCCCCCCCc1cc[n+](CCCCCCCCCCCCCCCCCC)cc1.[Cl-]" ) reads 14.1

Field % surv cells (entry "CCCCCCCC/C=C\CCCCCCCC[n+]1ccc(CCCCCCCCCCCCCCC)cc1.[Cl-]" ) reads 53.15

----------
- Test system: COS-7 and HepG2 cells
- assayRemarks: Cell survival after transfection (cell line not given)
- Type: cell-based
- condition: Table 7; cell line and helper lipid not given
I'd appreciate it if you could supply % surv cells values for the items below.
Give just the numeric value; % need not be written.

Field % surv cells (entry CCCCCCCCCCCCCc1cc[n+](CCCCCCCCCCCC)cc1.[Cl-] [SF34, 1-dodecyl-4-tridecyl-pyridinium Chloride] ) reads 84.47

Field % surv cells (entry CCCCCCCCCCCCCCCC[n+]1ccc(CCCCCCCCCCCCC)cc1.[Cl-] [SF36] ) reads 84.28

Field % surv cells (entry CCCCCCCC/C=C\CCCCCCCCCc1cc[n+](CCCCCCCC/C=C\CCCCCCCC)cc1.[Cl-] [SF6] ) reads 84.06

Field % surv cells (entry CCCCCCCC/C=C\CCCCCCCC[n+]1ccc(CCCCCCCCCCCCC)cc1.[Cl-] [SF30] ) reads 84.28

Field % surv cells (entry CCCCCCCCCCCCCC[n+]1ccc(CCCCCCCCCCCCC)cc1.[Cl-] [SF35] ) reads 82.58

Field % surv cells (entry CCCCCCCCCCCCCc1cc[n+](CCCCCCCC)cc1.[Cl-] [SF32, 1-octyl-4-tridecyl-pyridinium Chloride] ) reads 81.56

Field % surv cells (entry CCCCCCCCCCCCCCCCCC[n+]1ccc(CCCCCCCCCCCCC)cc1.[Cl-] [SF37, 1-stearyl-4-tridecyl-pyridinium Chloride] ) reads 75.65

Field % surv cells (entry CCCCCCCC/C=C\CCCCCCCCC(CCCCCCCC/C=C\CCCCCCCC)c1cc[n+](C)cc1.[Cl-] [S2, reference compound] ) reads 82.51

Field % surv cells (entry CCCCCCCCCCCCCc1cc[n+](CCCCCCCCCC)cc1.[Cl-] [SF33, 1-decyl-4-tridecyl-pyridinium Chloride] ) reads 87.79

----------
- Tested on: COS-7 and HepG2 cells
- assayRemarks: Cell survival after transfection (cell line not given)
- Type: cell-based
- condition: Table 10; cell line and helper lipid not given
recordedEndpoint: % surv cells (%)
Give just the numeric value; % need not be written.

Field % surv cells (entry "CCCCCCCC/C=C\CCCCCCCCCc1cc[n+](CCCCCCCC/C=C\CCCCCCCC)cc1.[Cl-]" ) reads 61.57

Field % surv cells (entry CCCCCCCCCCCCCc1cc[n+](CCCCCCCC)cc1.[Cl-] [SF32, 1-octyl-4-tridecyl-pyridinium Chloride] ) reads 78.75

Field % surv cells (entry CCCCCCCC/C=C\CCCCCCCCC(CCCCCCCC/C=C\CCCCCCCC)c1cc[n+](C)cc1.[Cl-] [S2, reference compound] ) reads 21.81

Field % surv cells (entry CCCCCCCCCCCCCc1cc[n+](CCCCCCCCCCCC)cc1.[Cl-] [SF34, 1-dodecyl-4-tridecyl-pyridinium Chloride] ) reads 67.89

Field % surv cells (entry CCCCCCCCCCCCCc1cc[n+](CCCCCCCCCC)cc1.[Cl-] [SF33, 1-decyl-4-tridecyl-pyridinium Chloride] ) reads 69.94

Field % surv cells (entry "CCCCCCCC/C=C\CCCCCCCC[n+]1ccc(CCCCCCCCCCCCC)cc1.[Cl-]" ) reads 60.16

Field % surv cells (entry CCCCCCCCCCCCCCCCCC[n+]1ccc(CCCCCCCCCCCCC)cc1.[Cl-] [SF37, 1-stearyl-4-tridecyl-pyridinium Chloride] ) reads 63.85

Field % surv cells (entry "CCCCCCCCCCCCCC[n+]1ccc(CCCCCCCCCCCCC)cc1.[Cl-]" ) reads 70.39

Field % surv cells (entry "CCCCCCCCCCCCCCCC[n+]1ccc(CCCCCCCCCCCCC)cc1.[Cl-]" ) reads 37.75

----------
I'd appreciate it if you could supply % surv cells values for the items below.
- System: COS-7 and HepG2 cells
- assayRemarks: Cell survival after transfection (cell line not given)
- Type: cell-based
- condition: Table 6; cell line and helper lipid not given
Give just the numeric value; % need not be written.

Field % surv cells (entry "CCCCCCCC/C=C\CCCCCCCC[n+]1ccc(C)cc1.[Cl-]" ) reads 94.13

Field % surv cells (entry "CCCCCCCC/C=C\CCCCCCCC[n+]1ccc(CCCCC)cc1.[Cl-]" ) reads 94.54

Field % surv cells (entry "CCCCCCCCCCCCOC(=O)c1cc[n+](CCCCCCCCCCCC)cc1.[Cl-]" ) reads 91.74

Field % surv cells (entry "CCCCCCCC/C=C\CCCCCCCC[n+]1ccc(CCCCCCC)cc1.[Cl-]" ) reads 89.11

Field % surv cells (entry "CCCCCCCC/C=C\CCCCCCCC[n+]1ccc(CCCCCCCCCCCCCCCCC)cc1.[Cl-]" ) reads 92.61

Field % surv cells (entry "CCCCCCCC/C=C\CCCCCCCC[n+]1ccc(CCCCCCCCC)cc1.[Cl-]" ) reads 93.49

Field % surv cells (entry "CCCCCCCC/C=C\CCCCCCCC[n+]1ccc(CCCCCCCCCCC)cc1" ) reads 86.86

Field % surv cells (entry "CCCCCCCC/C=C\CCCCCCCCCc1cc[n+](CCCCCCCCCCCCCCCCCC)cc1.[Cl-]" ) reads 93.55

Field % surv cells (entry "CCCCCCCC/C=C\CCCCCCCC[n+]1ccc(CCCCCCCCCCCCCCC)cc1.[Cl-]" ) reads 93.99

Field % surv cells (entry "CCCCCCCC/C=C\CCCCCCCC[n+]1ccc(CCCCCCCCCCCCCCCCCCC)cc1.[Cl-]" ) reads 93.14

Field % surv cells (entry "CCCCCCCC/C=C\CCCCCCCC[n+]1ccc(CCC)cc1.[Cl-]" ) reads 92.2
